All figures here come from the supplement of paper PMC11061612.

test system: DU-145 (Prostate Carcinoma); assay: Bliss excess, mean over the matrix (fraction); higher = more synergy

>  <MOLECULE>
Cc1c2c(nn1C)CSCc1cc(n(C)n1)CSc1cc(c3ccccc3c1)OCCCc1c(C(=O)O)n(C)c3c-2c(Cl)ccc13 [AZD5991] + Cn1cnc2c(F)c(Nc3ccc(Br)cc3Cl)c(C(=O)NOCCO)cc21 [Selumetinib] (first compound max 1 µM, 7x7, partner max 3 µM)

>  <Bliss excess>
0.003

$$$$
>  <MOLECULE>
Cc1nc(-c2cn3c(n2)-c2ccc(-c4cnn(C(C)(C)C(N)=O)c4)cc2OCC3)n(C(C)C)n1 [Taselisib] + O=C(Nc1ccc2[nH]nc(-c3ccncc3)c2c1)[C@@H]1CCN(CC(=O)N2CCN(c3ccc(-c4ncccn4)cc3)CC2)C1 [SCH772984] (first compound max 10 µM, 7x7, partner max 5 µM)

>  <Bliss excess>
0.0551

$$$$
>  <MOLECULE>
COc1cc2ncnc(Nc3ccc(F)c(Cl)c3)c2cc1OCCCN1CCOCC1 [Gefitinib] + CC(C)n1c(=O)n(C)c2cnc3cc(F)c(-c4ccc(OCCCN5CCCCC5)nc4)cc3c21 [AZD1390] (first compound max 10 µM, 7x7, partner max 0.3 µM)

>  <Bliss excess>
-0.06

$$$$
>  <MOLECULE>
CN(CCO)CC[C@H](CSc1ccccc1)Nc1ccc(S(=O)(=O)NC(=O)c2ccc(N3CCC([C@@H](O)c4ccccc4-c4ccc(Cl)cc4)CC3)cc2)cc1S(=O)(=O)C(F)(F)F [AZD4320] + C=CCn1c(=O)c2cnc(Nc3ccc(N4CCN(C)CC4)cc3)nc2n1-c1cccc(C(C)(C)O)n1 [AZD1775] (first compound max 1 µM, partner max 1 µM)

>  <Bliss excess>
-0.0308

$$$$
>  <MOLECULE>
C[C@@H](Nc1cc(F)cc(F)c1)c1cc(C(=O)N(C)C)cc2c(=O)cc(N3CCOCC3)oc12 [AZD8186] + CC(=O)c1c(C)c2cnc(Nc3ccc(N4CCNCC4)cn3)nc2n(C2CCCC2)c1=O [Palbociclib] (first compound max 10 µM, 7x7, partner max 10 µM)

>  <Bliss excess>
0.0147

$$$$
>  <MOLECULE>
CC1(C)CCC(CN2CCN(c3ccc(C(=O)NS(=O)(=O)c4ccc(NCC5CCOCC5)c([N+](=O)[O-])c4)c(Oc4cnc5[nH]ccc5c4)c3)CC2)=C(c2ccc(Cl)cc2)C1 [Venetoclax] + Cc1cc2ncnn2cc1Nc1ncc2c(n1)n(C1CCOCC1)c(=O)n2C [AZD7648] (first compound max 1 µM, 7x7, partner max 10 µM)

>  <Bliss excess>
-0.0166

$$$$
>  <MOLECULE>
C=CCn1c(=O)c2cnc(Nc3ccc(N4CCN(C)CC4)cc3)nc2n1-c1cccc(C(C)(C)O)n1 [AZD1775] + C1CN(CCC1(C(=O)N[C@@H](CCO)C2=CC=C(C=C2)Cl)N)C3=NC=NC4=C3C=CN4 [Capivasertib] (first compound max 3 µM, partner max 3 µM)

>  <Bliss excess>
-0.055

$$$$

###

system: NCI-H1092 (Small Cell Lung Carcinoma); experiment: combination Emax (second highest fraction inhibited in the dose matrix, 72 h); higher = more inhibition; extreme values may be limits of the assay
Item-by-item account of combination Emax

>  <MOLECULE>
COc1cccc(OCCCN)c1-c1cc(Nc2cnc(C#N)cn2)n[nH]1 [Prexasertib] + C=CCn1c(=O)c2cnc(Nc3ccc(N4CCN(C)CC4)cc3)nc2n1-c1cccc(C(C)(C)O)n1 [AZD1775] (first compound max 1 µM, partner max 1 µM)

>  <combination Emax>
0.756

$$$$
>  <MOLECULE>
CC(=O)c1c(C)c2cnc(Nc3ccc(N4CCNCC4)cn3)nc2n(C2CCCC2)c1=O [Palbociclib] + CC1(C)CCC(CN2CCN(c3ccc(C(=O)NS(=O)(=O)c4ccc(NCC5CCOCC5)c([N+](=O)[O-])c4)c(Oc4cnc5[nH]ccc5c4)c3)CC2)=C(c2ccc(Cl)cc2)C1 [Venetoclax] (first compound max 10 µM, 7x7, partner max 1 µM)

>  <combination Emax>
0.222

$$$$

###

Bliss excess values for the molecules below.
test system: SK-LU-1 (Lung Adenocarcinoma); experiment: Bliss excess, mean over the matrix (fraction); higher = more synergy

>  <MOLECULE>
CN(CCO)CC[C@H](CSc1ccccc1)Nc1ccc(S(=O)(=O)NC(=O)c2ccc(N3CCC([C@@H](O)c4ccccc4-c4ccc(Cl)cc4)CC3)cc2)cc1S(=O)(=O)C(F)(F)F [AZD4320] + CS(=O)(=O)CCNCc1ccc(-c2ccc3ncnc(Nc4ccc(OCc5cccc(F)c5)c(Cl)c4)c3c2)o1 [Lapatinib] (first compound max 1 µM, 7x7, partner max 10 µM)

>  <Bliss excess>
-0.0415

$$$$
>  <MOLECULE>
CCN(CCO)CCCOc1ccc2c(Nc3cc(CC(=O)Nc4cccc(F)c4)[nH]n3)ncnc2c1 [AZD2811] + C=CCn1c(=O)c2cnc(Nc3ccc(N4CCN(C)CC4)cc3)nc2n1-c1cccc(C(C)(C)O)n1 [AZD1775] (first compound max 1 µM, partner max 1 µM)

>  <Bliss excess>
-0.0132

$$$$
>  <MOLECULE>
COc1nnc2ccc(N3CCC(c4ccc(OCCN5CCN(C)C(=O)[C@H]5C)cc4)CC3)nn12 [AZD5153] + C=CCn1c(=O)c2cnc(Nc3ccc(N4CCN(C)CC4)cc3)nc2n1-c1cccc(C(C)(C)O)n1 [AZD1775] (first compound max 1 µM, partner max 1 µM)

>  <Bliss excess>
-0.0461

$$$$
>  <MOLECULE>
C[C@@H](Oc1cc(-c2cnn(C3CCNCC3)c2)cnc1N)c1c(Cl)ccc(F)c1Cl [Crizotinib] + CC1=C(C(=CC=C1)Cl)NC(=O)C2=CN=C(S2)NC3=CC(=NC(=N3)C)N4CCN(CC4)CCO [Dasatinib] (first compound max 10 µM, 7x7, partner max 2 µM)

>  <Bliss excess>
0.02

$$$$

###

tested on: MDA-MB-453 (Breast Carcinoma); assay: Bliss excess, mean over the matrix (fraction); higher = more synergy
Reported Bliss excess by item:

>  <COMPOUND>
CN(CCO)CC[C@H](CSc1ccccc1)Nc1ccc(S(=O)(=O)NC(=O)c2ccc(N3CCC([C@@H](O)c4ccccc4-c4ccc(Cl)cc4)CC3)cc2)cc1S(=O)(=O)C(F)(F)F [AZD4320] + CC(=O)O[C@H]1C(=O)[C@@]2(C)[C@H]([C@H](OC(=O)c3ccccc3)[C@]3(O)C[C@H](OC(=O)[C@H](O)[C@@H](NC(=O)c4ccccc4)c4ccccc4)C(C)=C1C3(C)C)[C@]1(OC(C)=O)CO[C@@H]1C[C@@H]2O [Paclitaxel] (first compound max 1 µM, 7x7, partner max 3 µM)

>  <Bliss excess>
0.249

$$$$
>  <COMPOUND>
CC1(C)CCC(CN2CCN(c3ccc(C(=O)NS(=O)(=O)c4ccc(NCC5CCOCC5)c([N+](=O)[O-])c4)c(Oc4cnc5[nH]ccc5c4)c3)CC2)=C(c2ccc(Cl)cc2)C1 [Venetoclax] + CN(C)CCCOc1ccc(-c2ccc3ncc4c(c3c2)n(C2CCOCC2)c(=O)n4C)cn1 [AZD0156] (first compound max 1 µM, 7x7, partner max 1 µM)

>  <Bliss excess>
-0.0225

$$$$
>  <COMPOUND>
CC(=O)c1c(C)c2cnc(Nc3ccc(N4CCNCC4)cn3)nc2n(C2CCCC2)c1=O [Palbociclib] + CC1(C)CCC(CN2CCN(c3ccc(C(=O)NS(=O)(=O)c4ccc(NCC5CCOCC5)c([N+](=O)[O-])c4)c(Oc4cnc5[nH]ccc5c4)c3)CC2)=C(c2ccc(Cl)cc2)C1 [Venetoclax] (first compound max 10 µM, 7x7, partner max 1 µM)

>  <Bliss excess>
0.0091

$$$$

###

test system: KMRC-1 (Kidney Carcinoma); assay: Bliss excess, mean over the matrix (fraction); higher = more synergy

>  <MOLECULE>
CC1(C)CCC(CN2CCN(c3ccc(C(=O)NS(=O)(=O)c4ccc(NCC5CCOCC5)c([N+](=O)[O-])c4)c(Oc4cnc5[nH]ccc5c4)c3)CC2)=C(c2ccc(Cl)cc2)C1 [Venetoclax] + CN(C)CCCOc1ccc(-c2ccc3ncc4c(c3c2)n(C2CCOCC2)c(=O)n4C)cn1 [AZD0156] (first compound max 1 µM, 7x7, partner max 1 µM)

>  <Bliss excess>
-0.0466

$$$$
>  <MOLECULE>
C[C@@H]1COCCN1c1cc(C2([S@](C)(=N)=O)CC2)nc(-c2ccnc3[nH]ccc23)n1 [AZD6738] + Nc1ccn([C@@H]2O[C@H](CO)[C@@H](O)C2(F)F)c(=O)n1 [Gemcitabine] (first compound max 10 µM, 7x7, partner max 0.3 µM)

>  <Bliss excess>
0.0601

$$$$

###

Measured combination Emax, listed per entry.
test system: MV-4-11 (Acute Myeloid Leukemia); test: combination Emax (second highest fraction inhibited in the dose matrix, 72 h); higher = more inhibition; extreme values may be limits of the assay
EXPERIMENTAL READOUT: combination Emax

>  <COMPOUND>
Cn1cnc2c(F)c(Nc3ccc(Br)cc3Cl)c(C(=O)NOCCO)cc21 [Selumetinib] + CC(C)n1c(=O)n(C)c2cnc3cc(F)c(-c4ccc(OCCCN5CCCCC5)nc4)cc3c21 [AZD1390] (first compound max 10 µM, 7x7, partner max 0.3 µM)

>  <EXPERIMENTAL READOUT>
combination Emax

>  <ENDPOINT VALUE>
0.711

$$$$
>  <COMPOUND>
CC1(C)CCC(CN2CCN(c3ccc(C(=O)NS(=O)(=O)c4ccc(NCC5CCOCC5)c([N+](=O)[O-])c4)c(Oc4cnc5[nH]ccc5c4)c3)CC2)=C(c2ccc(Cl)cc2)C1 [Venetoclax] + Cc1cc2ncnn2cc1Nc1ncc2c(n1)n(C1CCOCC1)c(=O)n2C [AZD7648] (first compound max 1 µM, 7x7, partner max 10 µM)

>  <EXPERIMENTAL READOUT>
combination Emax

>  <ENDPOINT VALUE>
1

$$$$
>  <COMPOUND>
Cc1cc2ncnn2cc1Nc1ncc2c(n1)n(C1CCOCC1)c(=O)n2C [AZD7648] + CN(C)CCCOc1ccc(-c2ccc3ncc4c(c3c2)n(C2CCOCC2)c(=O)n4C)cn1 [AZD0156] (first compound max 10 µM, 7x7, partner max 1 µM)

>  <EXPERIMENTAL READOUT>
combination Emax

>  <ENDPOINT VALUE>
0.484

$$$$
>  <COMPOUND>
CN(CCO)CC[C@H](CSc1ccccc1)Nc1ccc(S(=O)(=O)NC(=O)c2ccc(N3CCC([C@@H](O)c4ccccc4-c4ccc(Cl)cc4)CC3)cc2)cc1S(=O)(=O)C(F)(F)F [AZD4320] + CC(=O)O[C@H]1C(=O)[C@@]2(C)[C@H]([C@H](OC(=O)c3ccccc3)[C@]3(O)C[C@H](OC(=O)[C@H](O)[C@@H](NC(=O)c4ccccc4)c4ccccc4)C(C)=C1C3(C)C)[C@]1(OC(C)=O)CO[C@@H]1C[C@@H]2O [Paclitaxel] (first compound max 1 µM, 7x7, partner max 3 µM)

>  <EXPERIMENTAL READOUT>
combination Emax

>  <ENDPOINT VALUE>
1

$$$$
